- TESTED TARGET: d-enCas12a-Ultra (Acidaminococcus sp., UniProt U2UMQ6 1-1307, E174R;S542R;K548R;M537R;F870L;D908A;E993A;D1235A)
- ASSAY NAME: Spec-seq (native PAGE EMSA with sequencing of bound and unbound); 25 mM Tris-HCl pH 7.4, 150 mM KCl, 5 mM MgCl2, 10% glycerol, 1 mM DTT, 40 ng/uL salmon sperm DNA; 400 nM Cas12a, 480 nM crRNA, 50 nM library, 37 C 1 h; native PAGE at room temperature; high values mean tight binding;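 note: relative affinity from the bound to unbound sequence frequency ratio in Spec-seq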
- TEST CONTEXT: protein: recombinant
PROPERTY NAME: binding signal

[
  {
    "BINDER": "CCGT (dsDNA) DNA 1: GCTATCTAGTGCTCAGTACGCACTGCCGTAGGAAACTTCTGGCAGGACCAGGTCATGAGATCGGAAGAGCACACGTCTGAACTCCAGTCA DNA 2: TGACTGGAGTTCAGACGTGTGCTCTTCCGATCTCATGACCTGGTCCTGCCAGAAGTTTCCTACGGCAGTGCGTACTGAGCACTAGATAGC RNA: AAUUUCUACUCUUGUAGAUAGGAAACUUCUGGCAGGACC",
    "PROPERTY NAME": "binding signal",
    "RESULT": "-3.38 lnKA"
  },
  {
    "BINDER": "AACA (dsDNA) DNA 1: GCTATCTAGTGCTCAGTACGCACTGAACAAGGAAACTTCTGGCAGGACCAGGTCATGAGATCGGAAGAGCACACGTCTGAACTCCAGTCA DNA 2: TGACTGGAGTTCAGACGTGTGCTCTTCCGATCTCATGACCTGGTCCTGCCAGAAGTTTCCTTGTTCAGTGCGTACTGAGCACTAGATAGC RNA: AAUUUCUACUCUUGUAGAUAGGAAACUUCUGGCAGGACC",
    "PROPERTY NAME": "binding signal",
    "RESULT": "-0.706 lnKA"
  },
  {
    "BINDER": "ATCA (dsDNA) DNA 1: GCTATCTAGTGCTCAGTACGCACTGATCAAGGAAACTTCTGGCAGGACCAGGTCATGAGATCGGAAGAGCACACGTCTGAACTCCAGTCA DNA 2: TGACTGGAGTTCAGACGTGTGCTCTTCCGATCTCATGACCTGGTCCTGCCAGAAGTTTCCTTGATCAGTGCGTACTGAGCACTAGATAGC RNA: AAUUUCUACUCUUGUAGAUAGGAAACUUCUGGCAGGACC",
    "PROPERTY NAME": "binding signal",
    "RESULT": "-0.402 lnKA"
  }
]
